Where do these numbers come from? They come from PubChem BioAssay AID504651.

molecular target: D(1A) dopamine receptor (Homo sapiens); assay: Potentiators of Human D1 Dopamine Receptor: qHTS; conditions: HEK293 TREx D1 cells, calcium flux, dopamine EC20 potentiation; at 10 µM; hits give high values; note: 0% is about no effect
About 130 (0.036%) of roughly 360,000 compounds were called active. The full list was thinned out, with actives kept by preference.
READOUT KIND: potentiation (%)

CC(C)NC(=O)NC(=O)CSc1nnc(-c2ccccc2F)n1N    35
Cc1ccc(SCC(=O)Nc2ccc3oc(-c4ccccc4F)nc3c2)cc1    -1.1
CC1CCC2(CC1)N=C(c1ccccc1)C(=O)N2CC(=O)Nc1ccc(F)c(Cl)c1 (stereo unspecified)    -3.15
Nn1c(SCC(=O)NC(=O)NC2CCCC2)nnc1-c1ccccc1F    -9.3
CCOc1cccc(CNC(=O)c2ccc(N3CCCC3)c(NC(=O)Nc3ccccc3CC)c2)c1    -0.4
Cc1cccc(Cn2c(=O)n(CCC(=O)NCCc3ccc(Cl)cc3)c(=O)c3sccc32)c1    0.55
